- SUBJECT OF TEST: hGluN1a + hGluN2Bwt (Homo sapiens, UniProt Q05586+Q13224)
- Sequence (Q13224 27-1484, other chains not shown): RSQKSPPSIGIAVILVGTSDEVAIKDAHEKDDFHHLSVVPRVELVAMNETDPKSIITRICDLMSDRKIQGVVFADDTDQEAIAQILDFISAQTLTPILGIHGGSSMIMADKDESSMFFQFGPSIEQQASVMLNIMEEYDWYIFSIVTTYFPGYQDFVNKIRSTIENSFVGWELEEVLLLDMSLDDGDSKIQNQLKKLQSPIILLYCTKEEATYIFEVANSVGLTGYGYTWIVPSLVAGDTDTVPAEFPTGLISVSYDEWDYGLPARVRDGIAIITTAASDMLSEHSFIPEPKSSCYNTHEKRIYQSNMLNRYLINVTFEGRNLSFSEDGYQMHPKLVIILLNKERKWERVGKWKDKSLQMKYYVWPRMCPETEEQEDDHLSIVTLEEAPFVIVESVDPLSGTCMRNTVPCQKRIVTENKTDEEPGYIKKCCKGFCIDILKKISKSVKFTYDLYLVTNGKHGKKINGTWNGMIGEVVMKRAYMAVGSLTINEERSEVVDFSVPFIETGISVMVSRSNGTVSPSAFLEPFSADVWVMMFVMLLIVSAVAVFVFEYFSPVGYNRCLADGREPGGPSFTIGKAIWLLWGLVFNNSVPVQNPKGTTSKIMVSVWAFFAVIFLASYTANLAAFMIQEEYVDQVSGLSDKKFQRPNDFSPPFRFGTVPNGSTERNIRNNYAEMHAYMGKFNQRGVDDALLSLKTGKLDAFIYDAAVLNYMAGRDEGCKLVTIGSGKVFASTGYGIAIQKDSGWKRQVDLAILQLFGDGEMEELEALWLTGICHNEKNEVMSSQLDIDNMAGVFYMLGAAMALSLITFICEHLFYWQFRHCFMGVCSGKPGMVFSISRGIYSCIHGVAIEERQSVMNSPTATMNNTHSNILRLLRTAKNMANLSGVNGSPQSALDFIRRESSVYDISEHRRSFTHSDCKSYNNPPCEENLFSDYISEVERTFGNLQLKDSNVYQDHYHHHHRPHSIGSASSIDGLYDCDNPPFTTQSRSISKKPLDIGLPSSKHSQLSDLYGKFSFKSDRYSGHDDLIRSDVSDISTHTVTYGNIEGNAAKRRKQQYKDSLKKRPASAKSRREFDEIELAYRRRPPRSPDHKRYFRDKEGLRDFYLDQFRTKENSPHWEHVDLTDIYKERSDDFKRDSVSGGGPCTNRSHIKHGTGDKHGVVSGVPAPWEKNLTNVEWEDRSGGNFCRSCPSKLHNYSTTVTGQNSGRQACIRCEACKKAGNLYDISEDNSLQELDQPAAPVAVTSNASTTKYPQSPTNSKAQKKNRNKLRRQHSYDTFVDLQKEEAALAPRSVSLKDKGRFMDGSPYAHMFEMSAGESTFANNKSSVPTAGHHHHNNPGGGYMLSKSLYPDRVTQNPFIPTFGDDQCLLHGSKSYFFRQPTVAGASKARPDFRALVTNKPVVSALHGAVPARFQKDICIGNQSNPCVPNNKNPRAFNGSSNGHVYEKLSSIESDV
- ASSAY CONTEXT: read-out: Glycine EC50; 5 mM glutamate
ENDPOINT LABEL: pEC50
The read-out pEC50 is expressed as -log10 of concentration in moles per litre.

I am curious: what pEC50 value has been reported for NCC(=O)O ?
6.64
